system: NCI-H2126; assay: relative viability (nuclei count vs DMSO), 5 days (fraction); higher = more cells survive; settings: first compound 0.253 µM

| molecule | measurementTarget | relative viability |
| --- | --- | --- |
| Cc1cnc(-c2cnc(NCCNc3ccc(C#N)cn3)nc2-c2ccc(Cl)cc2Cl)[nH]1 + COc1cccc2cc(-c3nc([C@H]4CC[C@H](C(=O)O)CC4)n4ncnc(N)c34)[nH]c12 [OSI-027] (partner 0.5 µM) | NCI-H2126 | 0.622 |
| O=c1[nH]c2ccccc2n1C1CCN(CCCC(c2ccc(F)cc2)c2ccc(F)cc2)CC1 [Pimozide] + CS(=O)(=O)N1CCN(Cc2cc3nc(-c4cccc5[nH]ncc45)nc(N4CCOCC4)c3s2)CC1 [Pictilisib] (partner 1 µM) | NCI-H2126 | 0.468 |
| Cc1cnc(-c2cnc(NCCNc3ccc(C#N)cn3)nc2-c2ccc(Cl)cc2Cl)[nH]1 + O=C(c1cc(Cc2n[nH]c(=O)c3ccccc23)ccc1F)N1CCN(C(=O)C2CC2)CC1 [Olaparib] (partner 8 µM) | NCI-H2126 | 0.908 |
| O=c1[nH]c2ccccc2n1C1CCN(CCCC(c2ccc(F)cc2)c2ccc(F)cc2)CC1 [Pimozide] + Nc1ncn([C@H]2C[C@H](O)[C@@H](CO)O2)c(=O)n1 [Decitabine] (partner 2 µM) | NCI-H2126 | 0.576 |
| O=c1[nH]c2ccccc2n1C1CCN(CCCC(c2ccc(F)cc2)c2ccc(F)cc2)CC1 [Pimozide] + CC(C)C[C@H](NC(=O)[C@H](Cc1ccccc1)NC(=O)c1cnccn1)B(O)O [Bortezomib] (partner 0.002 µM) | NCI-H2126 | 1.1 |
| Cc1cnc(-c2cnc(NCCNc3ccc(C#N)cn3)nc2-c2ccc(Cl)cc2Cl)[nH]1 + Cc1nc(Nc2ncc(C(=O)Nc3c(C)cccc3Cl)s2)cc(N2CCN(CCO)CC2)n1 [Dasatinib] (partner 0.075 µM) | NCI-H2126 | 0.54 |
| O=c1[nH]c2ccccc2n1C1CCN(CCCC(c2ccc(F)cc2)c2ccc(F)cc2)CC1 [Pimozide] + Cc1nc(NC(=O)N2CCC[C@H]2C(N)=O)sc1-c1ccnc(C(C)(C)C(F)(F)F)c1 [Alpelisib] (partner 2 µM) | NCI-H2126 | 0.734 |
| Cc1cnc(-c2cnc(NCCNc3ccc(C#N)cn3)nc2-c2ccc(Cl)cc2Cl)[nH]1 + CC(=O)Nc1cccc(-n2c(=O)n(C3CC3)c(=O)c3c(Nc4ccc(I)cc4F)n(C)c(=O)c(C)c32)c1 [Trametinib] (partner 0.02 µM) | NCI-H2126 | 0.546 |
| O=c1[nH]c2ccccc2n1C1CCN(CCCC(c2ccc(F)cc2)c2ccc(F)cc2)CC1 [Pimozide] + CC(=O)Nc1cccc(-n2c(=O)n(C3CC3)c(=O)c3c(Nc4ccc(I)cc4F)n(C)c(=O)c(C)c32)c1 [Trametinib] (partner 0.02 µM) | NCI-H2126 | 0.584 |

====

tested on: NCI-H2170; assay: relative viability (nuclei count vs DMSO), 5 days (fraction); higher = more cells survive; settings: first compound 0.1265 µM

| molecule | measurementTarget | relative viability |
| --- | --- | --- |
| Cc1sc2c(c1C)C(c1ccc(Cl)cc1)=N[C@@H](CC(=O)OC(C)(C)C)c1nnc(C)n1-2 [JQ1] + COc1cccc2cc(-c3nc([C@H]4CC[C@H](C(=O)O)CC4)n4ncnc(N)c34)[nH]c12 [OSI-027] (partner 0.5 µM) | NCI-H2170 | 0.623 |
| Cc1sc2c(c1C)C(c1ccc(Cl)cc1)=N[C@@H](CC(=O)OC(C)(C)C)c1nnc(C)n1-2 [JQ1] + Cc1nc(NC(=O)N2CCC[C@H]2C(N)=O)sc1-c1ccnc(C(C)(C)C(F)(F)F)c1 [Alpelisib] (partner 2 µM) | NCI-H2170 | 0.801 |
| Cc1sc2c(c1C)C(c1ccc(Cl)cc1)=N[C@@H](CC(=O)OC(C)(C)C)c1nnc(C)n1-2 [JQ1] + NC(=O)Nc1cc(-c2cccc(F)c2)sc1C(=O)N[C@H]1CCCNC1 [AZD7762] (partner 0.2 µM) | NCI-H2170 | 0.564 |
| Cc1sc2c(c1C)C(c1ccc(Cl)cc1)=N[C@@H](CC(=O)OC(C)(C)C)c1nnc(C)n1-2 [JQ1] + Nc1nc2[nH]cc(CCc3ccc(C(=O)N[C@@H](CCC(=O)O)C(=O)O)cc3)c2c(=O)[nH]1 [Pemetrexed] (partner 0.2 µM) | NCI-H2170 | 0.263 |

====

Collected relative viability values appear next to each entry.
test system: LCLC-97TM1; assay: relative viability (nuclei count vs DMSO), 5 days (fraction); higher = more cells survive; conditions: first compound 0.253 µM

| molecule | relative viability |
| --- | --- |
| O=c1[nH]c2ccccc2n1C1CCN(CCCC(c2ccc(F)cc2)c2ccc(F)cc2)CC1 [Pimozide] + Cc1nc(Nc2ncc(C(=O)Nc3c(C)cccc3Cl)s2)cc(N2CCN(CCO)CC2)n1 [Dasatinib] (partner 0.075 µM) | 0.811 |
| Cc1cnc(-c2cnc(NCCNc3ccc(C#N)cn3)nc2-c2ccc(Cl)cc2Cl)[nH]1 + CC(=O)Nc1cccc(-n2c(=O)n(C3CC3)c(=O)c3c(Nc4ccc(I)cc4F)n(C)c(=O)c(C)c32)c1 [Trametinib] (partner 0.02 µM) | 0.193 |
| Cc1cnc(-c2cnc(NCCNc3ccc(C#N)cn3)nc2-c2ccc(Cl)cc2Cl)[nH]1 + NC(=O)Nc1cc(-c2cccc(F)c2)sc1C(=O)N[C@H]1CCCNC1 [AZD7762] (partner 0.2 µM) | 0.186 |
| O=c1[nH]c2ccccc2n1C1CCN(CCCC(c2ccc(F)cc2)c2ccc(F)cc2)CC1 [Pimozide] + C[C@@H](Oc1cc(-c2cnn(C3CCNCC3)c2)cnc1N)c1c(Cl)ccc(F)c1Cl [Crizotinib] (partner 1 µM) | 0.356 |

====

tested on: LC-2-ad; test: relative viability (nuclei count vs DMSO), 5 days (fraction); higher = more cells survive; conditions: first compound 0.253 µM

| compound | measurementTarget | relative viability |
| --- | --- | --- |
| O=c1[nH]c2ccccc2n1C1CCN(CCCC(c2ccc(F)cc2)c2ccc(F)cc2)CC1 [Pimozide] + CCNC(=O)c1noc(-c2cc(C(C)C)c(O)cc2O)c1-c1ccc(CN2CCOCC2)cc1 [Luminespib] (partner 0.01 µM) | LC-2-ad | 0.969 |
| O=c1[nH]c2ccccc2n1C1CCN(CCCC(c2ccc(F)cc2)c2ccc(F)cc2)CC1 [Pimozide] + COc1cccc2cc(-c3nc([C@H]4CC[C@H](C(=O)O)CC4)n4ncnc(N)c34)[nH]c12 [OSI-027] (partner 0.5 µM) | LC-2-ad | 0.875 |
| O=c1[nH]c2ccccc2n1C1CCN(CCCC(c2ccc(F)cc2)c2ccc(F)cc2)CC1 [Pimozide] + CS(=O)(=O)N1CCN(Cc2cc3nc(-c4cccc5[nH]ncc45)nc(N4CCOCC4)c3s2)CC1 [Pictilisib] (partner 1 µM) | LC-2-ad | 0.405 |
| O=c1[nH]c2ccccc2n1C1CCN(CCCC(c2ccc(F)cc2)c2ccc(F)cc2)CC1 [Pimozide] + O=C(c1cc(Cc2n[nH]c(=O)c3ccccc23)ccc1F)N1CCN(C(=O)C2CC2)CC1 [Olaparib] (partner 8 µM) | LC-2-ad | 0.731 |
| Cc1cnc(-c2cnc(NCCNc3ccc(C#N)cn3)nc2-c2ccc(Cl)cc2Cl)[nH]1 + CCNC(=O)c1noc(-c2cc(C(C)C)c(O)cc2O)c1-c1ccc(CN2CCOCC2)cc1 [Luminespib] (partner 0.01 µM) | LC-2-ad | 0.683 |
| Cc1cnc(-c2cnc(NCCNc3ccc(C#N)cn3)nc2-c2ccc(Cl)cc2Cl)[nH]1 + COc1cc2c(Oc3ccc(NC(=O)C4(C(=O)Nc5ccc(F)cc5)CC4)cc3F)ccnc2cc1OCCCN1CCOCC1 [Foretinib] (partner 0.25 µM) | LC-2-ad | 0.711 |
| Cc1cnc(-c2cnc(NCCNc3ccc(C#N)cn3)nc2-c2ccc(Cl)cc2Cl)[nH]1 + Cc1nc(Nc2ncc(C(=O)Nc3c(C)cccc3Cl)s2)cc(N2CCN(CCO)CC2)n1 [Dasatinib] (partner 0.075 µM) | LC-2-ad | 0.486 |
| O=c1[nH]c2ccccc2n1C1CCN(CCCC(c2ccc(F)cc2)c2ccc(F)cc2)CC1 [Pimozide] + NC(=O)Nc1cc(-c2cccc(F)c2)sc1C(=O)N[C@H]1CCCNC1 [AZD7762] (partner 0.2 µM) | LC-2-ad | 0.794 |

====

test system: SK-LU-1; test: relative viability (nuclei count vs DMSO), 5 days (fraction); higher = more cells survive; conditions: first compound 0.0002 µM

| compound | relative viability |
| --- | --- |
| CC(=O)O[C@@]12CO[C@@H]1C[C@H](O)[C@@]1(C)C(=O)[C@H](O)C3=C(C)[C@@H](OC(=O)[C@H](O)[C@@H](NC(=O)OC(C)(C)C)c4ccccc4)C[C@@](O)([C@@H](OC(=O)c4ccccc4)[C@H]21)C3(C)C [Docetaxel] + C[C@]1(O)C[C@@H](c2nc(-c3ccc4ccc(-c5ccccc5)nc4c3)c3c(N)nccn32)C1 [Linsitinib] (partner 1 µM) | 0.899 |
| CC(=O)O[C@@]12CO[C@@H]1C[C@H](O)[C@@]1(C)C(=O)[C@H](O)C3=C(C)[C@@H](OC(=O)[C@H](O)[C@@H](NC(=O)OC(C)(C)C)c4ccccc4)C[C@@](O)([C@@H](OC(=O)c4ccccc4)[C@H]21)C3(C)C [Docetaxel] + CC(=O)c1c(C)c2cnc(Nc3ccc(N4CCNCC4)cn3)nc2n(C2CCCC2)c1=O [Palbociclib] (partner 0.5 µM) | 0.358 |
| CC(=O)O[C@@]12CO[C@@H]1C[C@H](O)[C@@]1(C)C(=O)[C@H](O)C3=C(C)[C@@H](OC(=O)[C@H](O)[C@@H](NC(=O)OC(C)(C)C)c4ccccc4)C[C@@](O)([C@@H](OC(=O)c4ccccc4)[C@H]21)C3(C)C [Docetaxel] + O=C(CCCCCCC(=O)Nc1ccccc1)NO [Vorinostat] (partner 1 µM) | 0.754 |
